Measured on: T1, AlkB (Escherichia coli, UniProt P05050 1-216)
T1 sequence: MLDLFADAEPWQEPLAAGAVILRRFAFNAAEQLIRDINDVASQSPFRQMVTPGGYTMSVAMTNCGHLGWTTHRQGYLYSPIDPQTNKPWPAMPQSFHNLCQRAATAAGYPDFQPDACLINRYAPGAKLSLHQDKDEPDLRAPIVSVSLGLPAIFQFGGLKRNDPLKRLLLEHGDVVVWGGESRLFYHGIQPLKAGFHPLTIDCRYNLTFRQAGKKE
Test protocol: stopped-flow FRET, global fit (enzyme-product complex); Fe(II), aKG; after turnover; 50 mM HEPES-KOH pH 7.5, 50 mM KCl, 10 mM MgCl2, 40 uM Fe(II), 1 mM aKG, 2 mM ascorbate (composition as given for the anaerobic runs); stopped-flow at 37 C; titration temperature not given in the material
Reported conditions: protein: recombinant; tags: His6; label: 5'-FAM, 3'-BHQ1; single strand
Value type: Kd (nM)
One number for each entry, in nM.

Q: # lookup: Kd of ACAGGATCCGGCATA (ssDNA) [ss15A_FRET (demethylated product of ss15m1A_FRET)]
Ans: 310
